experiment: gradient 5% acetonitrile 3 min, to 50% in 2 min, to 85% in 15 min, held 3 min, 100 µL/min; conditions: column: Zorbax Extend-C18 2.1 x 50 mm; eluents: water / acetonitrile, 0.1% formic acid
OBSERVED PROPERTY: RP-LC retention time (s)
Answers are plain numbers, in s.

Reference set (2 entries):
- COMPOUND: "O=C(Cn1ccc2ccc(N3CCOCC3)nc21)NCC1CCCCC1"
  RP-LC retention time, s: 924
- COMPOUND: "COc1ccc(NC(=O)Cc2csc3nc(-c4cccc(Cl)c4)cn23)cc1"
  RP-LC retention time, s: 889

Parameters: items (list). Returns: RP-LC retention time for each item.
1. Cc1ccc2c(C(=O)NCc3cc(F)cc(F)c3)cc(NC(=O)C(C)C)cc2n1
2. COC(=O)c1cc(C2CC2)nc2c1c(=O)n(Cc1ccc(Cl)cc1)c(=O)n2C
3. Cn1nnc2ccc(-c3noc(-c4ccc(F)cc4)n3)cc21
4. CN(C)[C@@H]1CN(C(=O)c2ccc(Br)cc2F)C[C@H]1CO
5. O=C(NCc1ccc(F)cc1)N1CC(F)(F)C[C@H]1c1nnc(-c2cnccn2)o1

Output:
666
1180
981
581
747

Working through the 8 compounds below one at a time, give RP-LC retention time for each.
1. COCCNC(=O)C1CCN(c2ncnc3c2oc2ccccc23)CC1
2. COc1ccccc1NC(=O)N1CCCC(C)(C(=O)NCc2ccccc2C)C1 (stereo not drawn)
3. C=C1C(=O)OC2C1CCC(C)C1(O)C=CC(=O)C21C (stereo not drawn)
4. CC1(C)CC(O)CC(C)(C)N1CC(O)COc1ccc(Cl)cc1Cl (stereo not drawn)
5. Cc1cc(C)n(C(=O)c2cn(-c3ccc(S(=O)(=O)N4CCCC(C)C4)cn3)cn2)n1 (stereo not drawn)
6. Cc1nn(-c2ccc(Cl)cc2)c(C)c1S(=O)(=O)N1CCN(c2ccccn2)CC1
7. O=C(Cn1cnc2nc3c(cc2c1=O)CCCC3)Nc1cccc(F)c1
8. CCc1ccccc1NC(=O)C(C)n1cnc2nc(N3CCCCC3)ncc2c1=O (stereo not drawn)

Output:
[617, 859, 722, 590, 1020, 747, 721, 882]
